Recorded values, source ChEMBL document CHEMBL1136112.

TARGET OR SYSTEM: Bone morphogenetic protein 1 (Homo sapiens)
Sequence (P13497 whole entry): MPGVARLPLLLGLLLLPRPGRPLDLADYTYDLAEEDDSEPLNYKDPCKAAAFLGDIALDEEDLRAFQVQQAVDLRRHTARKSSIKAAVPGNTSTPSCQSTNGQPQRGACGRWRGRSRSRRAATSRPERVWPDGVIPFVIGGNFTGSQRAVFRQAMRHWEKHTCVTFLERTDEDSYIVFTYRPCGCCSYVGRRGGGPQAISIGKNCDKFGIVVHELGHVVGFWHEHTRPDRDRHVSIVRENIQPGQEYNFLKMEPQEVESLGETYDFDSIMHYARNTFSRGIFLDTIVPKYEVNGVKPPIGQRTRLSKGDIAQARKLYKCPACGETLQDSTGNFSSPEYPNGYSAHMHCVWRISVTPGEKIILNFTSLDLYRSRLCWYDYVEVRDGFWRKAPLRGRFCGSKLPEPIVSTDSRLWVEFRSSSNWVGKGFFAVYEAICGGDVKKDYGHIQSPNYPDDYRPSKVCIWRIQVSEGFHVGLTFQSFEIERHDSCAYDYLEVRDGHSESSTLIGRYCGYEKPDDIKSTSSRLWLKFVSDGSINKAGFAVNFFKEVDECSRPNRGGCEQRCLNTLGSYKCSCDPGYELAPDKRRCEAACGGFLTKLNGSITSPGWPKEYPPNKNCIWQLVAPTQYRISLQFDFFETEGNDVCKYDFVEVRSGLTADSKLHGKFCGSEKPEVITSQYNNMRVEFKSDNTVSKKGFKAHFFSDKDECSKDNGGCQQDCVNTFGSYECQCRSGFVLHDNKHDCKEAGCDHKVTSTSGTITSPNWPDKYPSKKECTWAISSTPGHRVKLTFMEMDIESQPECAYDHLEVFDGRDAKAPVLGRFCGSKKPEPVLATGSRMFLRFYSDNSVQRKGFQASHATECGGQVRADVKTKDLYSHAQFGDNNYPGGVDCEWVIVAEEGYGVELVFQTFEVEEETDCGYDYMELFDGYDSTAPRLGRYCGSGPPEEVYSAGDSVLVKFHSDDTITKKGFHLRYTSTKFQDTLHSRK
PROTOCOL SUMMARY: Ability to inhibit procollagen C-terminal proteinase (PCP) tested in vitro
Attribute: pKi
The read-out pKi is expressed as -log10 of concentration in moles per litre.

{"columns": ["QUERY SMILES", "TARGET OR SYSTEM", "VALUE"],
 "data": [
  ["COc1ccc(S(=O)(=O)N(Cc2ccc3c(c2)OCO3)[C@H](CCC(=O)N(CCc2ccccc2)Cc2ccccc2)C(=O)NO)cc1", "Bone morphogenetic protein 1 (Homo sapiens)", 7.00],
  ["CCOC(=O)N1CCN(C(=O)CC[C@H](C(=O)NO)N(Cc2ccc3c(c2)OCO3)S(=O)(=O)c2ccc(OC)cc2)CC1", "Bone morphogenetic protein 1 (Homo sapiens)", 7.19],
  ["COc1ccc(S(=O)(=O)N(Cc2ccc3c(c2)OCO3)[C@H](CCC(=O)NCC2CC2)C(=O)NO)cc1", "Bone morphogenetic protein 1 (Homo sapiens)", 6.18],
  ["COc1ccc(S(=O)(=O)N(Cc2ccc3c(c2)OCO3)[C@H](CCC(=O)N(CCC#N)Cc2cccnc2)C(=O)NO)cc1", "Bone morphogenetic protein 1 (Homo sapiens)", 6.32],
  ["COc1ccc(S(=O)(=O)N(Cc2ccc3c(c2)OCO3)[C@H](CCC(=O)N2CCN(C(=O)c3ccccc3)CC2)C(=O)NO)cc1", "Bone morphogenetic protein 1 (Homo sapiens)", 7.46]
]}

QUERY: Fill in the blank: the reported pKi of CCNC(=O)CC[C@H](C(=O)NO)N(Cc1ccc2c(c1)OCO2)S(=O)(=O)c1ccc(OC)cc1 is ____.
RESULT: 5.92

QUERY: Same lookup for CCN(CC)C(=O)CC[C@H](C(=O)NO)N(Cc1ccc2c(c1)OCO2)S(=O)(=O)c1ccc(OC)cc1 , please.
RESULT: 5.89

QUERY: Could you do the same for COc1ccc(S(=O)(=O)N(Cc2ccc3c(c2)OCO3)[C@H](CCC(=O)NCc2cccnc2)C(=O)NO)cc1 , please?
RESULT: 6.80
